- assayedSystem: TSPO2-expressing RBC membranes (Homo sapiens)
- methodSummary: (3H) PK 11195 displacement binding on RBCs
- Set-up: endogenous in cells; host or cells: human red blood cells purified from fresh blood of healthy volunteers
- testSettings: displacement of 10 nM (3H) PK 11195; mean ± SEM, N = 3; read-out: IC50, TSPO ligands' affinity for RBC membranes
Reported pIC50 values follow for various compounds
# pIC50 is unitless: minus log10 of the molar concentration; print number only

Query: Give recorded pIC50 with TSPO2-expressing RBC membranes (Homo sapiens) for the following compound: CCCN(CCC)C(=O)Cn1c(=O)n2cc(-c3ccccc3)nc2c2ccccc21
Reply: 6.55

Moving on to another compound below.
Query: Item CCN(CC)C(=O)Cn1c(=O)n2cc(-c3ccco3)nc2c2ccccc21 with TSPO2-expressing RBC membranes (Homo sapiens) - pIC50?
Reply: 6.23

* * *

- Tested on: P. falciparum-infected RBCs
- methodSummary: Sorbitol-induced hemolysis in infected RBCs
- Assay type: cell-based, human
- testSettings: 50 µM ligand
quantityMeasured: t1/2 of sorbitol-induced hemolysis relative to control samples

Query: # input molecule: CN1C(=O)CN=C(c2ccc(Cl)cc2)c2cc(Cl)ccc21 [Ro5-4864, reference compound] ; wanted: its t1/2 of sorbitol-induced hemolysis relative to control samples
Reply: eight-fold higher

Query: Also CCN(CC)C(=O)Cn1c(=O)n2cc(-c3ccco3)nc2c2ccccc21 [NCS1018] , if possible.
Reply: eight-fold higher

Query: Another molecule: CCCN(CCC)C(=O)Cn1c(=O)n2cc(-c3ccccc3)nc2c2ccccc21 [NCS1026]
Reply: three-fold higher

Query: For CCC(C)N(C)C(=O)c1cc2ccccc2c(-c2ccccc2Cl)n1 (stereo not shown) [PK 11195, reference compound] then?
Reply: three-fold higher

* * *

- methodSummary: Hemolysis induced by TSPO ligands (Hb release, absorption at 405 nm)
- Type: cell-based
- testSettings: human, Hb released, mean ± SEM, N = 4, read-out: Hemolysis induced by TSPO ligands treatment
quantityMeasured: hemolysis (%)
The answer is to be given in %; state only the numeric part.

Query: Using the record for CN1C(=O)CN=C(c2ccc(Cl)cc2)c2cc(Cl)ccc21 [Ro5-4864, reference compound] , report its hemolysis.
Reply: 0.68

// moving on: another record for hemolysis
Query: What hemolysis value was documented for this compound, CCC(C)N(C)C(=O)c1cc2ccccc2c(-c2ccccc2Cl)n1 (centres unmarked) [PK 11195, reference compound] ?
Reply: 0.6

* * *

- assayedSystem: TSPO2-expressing RBC membranes (Homo sapiens, UniProt Q5TGU0)
- Sequence (Q5TGU0 1-170): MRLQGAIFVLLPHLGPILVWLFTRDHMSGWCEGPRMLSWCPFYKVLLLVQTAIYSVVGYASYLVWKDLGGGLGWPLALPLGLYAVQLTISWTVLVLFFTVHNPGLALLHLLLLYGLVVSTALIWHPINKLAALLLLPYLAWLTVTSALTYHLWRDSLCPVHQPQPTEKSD
- methodSummary: (3H) PK 11195 displacement binding on RBCs
- Parameters: endogenous in cells; host or cells: human red blood cells purified from fresh blood of healthy volunteers
quantityMeasured: IC50 (nM)
Return type: number; implicit unit nM.

Query: Under TSPO2-expressing RBC membranes (Homo sapiens, UniProt Q5TGU0): IC50 value of CN1C(=O)CN=C(c2ccc(Cl)cc2)c2cc(Cl)ccc21 [Ro5-4864, reference compound] ?
Reply: 1500

Values were extracted from paper PMC6213633.
